Data provenance: the supplement of paper PMC10567573

B1: CDC25B (parent)
chain: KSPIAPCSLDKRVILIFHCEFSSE

variants of: B1; assay: protein stability index of a GFP-peptide fusion (GPS, HEK-293T) (PSI 1-6); higher = more stable; details: c terminus: a fixed tail appended;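 note: lentivirally expressed fusions sorted by FACS into six bins by GFP to DsRed ratio, PSI derived from sequencing read proportions per bin multiplied by bin number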
Measured protein stability index, listed per entry for reference.

[[record]]
variant_string = "F21H"
measure = "protein stability index"
measured_value = 2.91

[[record]]
variant_string = "A5Y"
measure = "protein stability index"
measured_value = 3


// switching to the query variant
Query string: protein stability index lookup needed for P6F , thanks.
Result string: 3.05
